Test system: P388
Test: Cytotoxicity against mouse P388 cells by MTT assay
Assay type: functional
Settings: read-out: ED50 (the source's name)

{"columns": ["compound", "EC50 [µg/mL]"],
 "data": [
  ["C=C(C)C(CC[C@@H](C)[C@H]1CC[C@H]2[C@@H]3C[C@@H](O)C4=CC(=O)CC[C@]4(C)[C@H]3CC[C@]12C)OO (stereo not given in full)", 0.22],
  ["C[C@H](C/C=C/C(C)(C)O)[C@H]1CC[C@H]2[C@@H]3C[C@@H](O)C4=CC(=O)CC[C@]4(C)[C@H]3CC[C@]12C", 0.14],
  ["C=C(C)C(=O)CC[C@@H](C)[C@H]1CC[C@H]2[C@@H]3CC(=O)C4=CC(=O)CC[C@]4(C)[C@H]3CC[C@]12C", 0.11],
  ["C=C(C)C(O)CC[C@@H](C)[C@H]1CC[C@H]2[C@@H]3C[C@@H](O)C4=CC(=O)CC[C@]4(C)[C@H]3CC[C@]12C (stereo not given in full)", 0.19],
  ["C[C@H](C/C=C/C(C)(C)OO)[C@H]1CC[C@H]2[C@@H]3C[C@@H](O)C4=CC(=O)CC[C@]4(C)[C@H]3CC[C@]12C", 0.28]
]}

###

Tested on: A549
Experiment: Cytotoxicity against human A549 cells by MTT assay
Format: functional
Details: read-out: ED50 (the source's name)
measurementLabel: EC50 (µg/mL)

{"columns": ["compound", "measurementLabel", "dataValue"],
 "data": [
  ["C=C(C)C(CC[C@@H](C)[C@H]1CC[C@H]2[C@@H]3C[C@@H](O)C4=CC(=O)CC[C@]4(C)[C@H]3CC[C@]12C)OO (stereo not given in full)", "EC50", 0.58],
  ["C[C@H](C/C=C/C(C)(C)O)[C@H]1CC[C@H]2[C@@H]3C[C@@H](O)C4=CC(=O)CC[C@]4(C)[C@H]3CC[C@]12C", "EC50", 1.54],
  ["C=C(C)C(=O)CC[C@@H](C)[C@H]1CC[C@H]2[C@@H]3CC(=O)C4=CC(=O)CC[C@]4(C)[C@H]3CC[C@]12C", "EC50", 0.27],
  ["C[C@H](C/C=C/C(C)(C)OO)[C@H]1CC[C@H]2[C@@H]3C[C@@H](O)C4=CC(=O)CC[C@]4(C)[C@H]3CC[C@]12C", "EC50", 1],
  ["C=C(C)C(O)CC[C@@H](C)[C@H]1CC[C@H]2[C@@H]3C[C@@H](O)C4=CC(=O)CC[C@]4(C)[C@H]3CC[C@]12C (stereo not given in full)", "EC50", 2.37]
]}

###

Tested on: KB
Assay: Cytotoxicity against human KB cells by MTT assay
Assay type: functional
Conditions: read-out: ED50 (the source's name)
measurementLabel: EC50 (µg/mL)

{"columns": ["compound", "experimentalSystem", "dataValue"],
 "data": [
  ["C=C(C)C(O)CC[C@@H](C)[C@H]1CC[C@H]2[C@@H]3C[C@@H](O)C4=CC(=O)CC[C@]4(C)[C@H]3CC[C@]12C (stereo not given in full)", "KB", 0.83],
  ["C=C(C)C(CC[C@@H](C)[C@H]1CC[C@H]2[C@@H]3C[C@@H](O)C4=CC(=O)CC[C@]4(C)[C@H]3CC[C@]12C)OO (stereo not given in full)", "KB", 0.79],
  ["C=C(C)C(=O)CC[C@@H](C)[C@H]1CC[C@H]2[C@@H]3CC(=O)C4=CC(=O)CC[C@]4(C)[C@H]3CC[C@]12C", "KB", 0.24],
  ["C[C@H](C/C=C/C(C)(C)O)[C@H]1CC[C@H]2[C@@H]3C[C@@H](O)C4=CC(=O)CC[C@]4(C)[C@H]3CC[C@]12C", "KB", 0.45],
  ["C[C@H](C/C=C/C(C)(C)OO)[C@H]1CC[C@H]2[C@@H]3C[C@@H](O)C4=CC(=O)CC[C@]4(C)[C@H]3CC[C@]12C", "KB", 0.4]
]}

Hey, just so you know, these numbers are from ChEMBL document CHEMBL1158855.
